Catalogue of normalized RNA/DNA level with ligand (log10) readings, one per entry.
B1: library; a variant is named by its letters at N, in order (parent)
chain: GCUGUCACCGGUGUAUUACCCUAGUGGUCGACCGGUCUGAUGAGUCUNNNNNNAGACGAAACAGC

Variants of: B1
Assay: normalized RNA/DNA level with ligand (relative to sTRSVctl = 100) (log10 (% of sTRSVctl)); ligand: hypoxanthine (xanthine aptamer); higher = less ribozyme self-cleavage, higher mRNA level
Conditions: ligand concentration (+) RNA-Seq: 5 mM, HEK293T, reporter: mCherry (pCS4076), ligand present: yes
Keep the answer to the number alone.

Query: Give me measured normalized RNA/DNA level with ligand (log10), please, for this variant: GCUGUCACCGGUGUAUUACCCUAGUGGUCGACCGGUCUGAUGAGUCUCACCCGAGACGAAACAGC [CACCCG]
Reply: 1.94

Query: Give me measured normalized RNA/DNA level with ligand (log10), please, for this variant: GCUGUCACCGGUGUAUUACCCUAGUGGUCGACCGGUCUGAUGAGUCUUAGAUGAGACGAAACAGC [UAGAUG]
Reply: 1.9

Query: Give me measured normalized RNA/DNA level with ligand (log10), please, for this variant: GCUGUCACCGGUGUAUUACCCUAGUGGUCGACCGGUCUGAUGAGUCUUCUGGCAGACGAAACAGC [UCUGGC]
Reply: 1.94

Query: Give me measured normalized RNA/DNA level with ligand (log10), please, for this variant: GCUGUCACCGGUGUAUUACCCUAGUGGUCGACCGGUCUGAUGAGUCUUGACUCAGACGAAACAGC [UGACUC]
Reply: 2.01

Query: Give me measured normalized RNA/DNA level with ligand (log10), please, for this variant: GCUGUCACCGGUGUAUUACCCUAGUGGUCGACCGGUCUGAUGAGUCUUAGAUCAGACGAAACAGC [UAGAUC]
Reply: 1.96

---
Query: Give me measured normalized RNA/DNA level with ligand (log10), please, for this variant: GCUGUCACCGGUGUAUUACCCUAGUGGUCGACCGGUCUGAUGAGUCUUGUCGUAGACGAAACAGC [UGUCGU]
Reply: 1.91

Query: Give me measured normalized RNA/DNA level with ligand (log10), please, for this variant: GCUGUCACCGGUGUAUUACCCUAGUGGUCGACCGGUCUGAUGAGUCUGAGGUUAGACGAAACAGC [GAGGUU]
Reply: 1.97

Query: Give me measured normalized RNA/DNA level with ligand (log10), please, for this variant: GCUGUCACCGGUGUAUUACCCUAGUGGUCGACCGGUCUGAUGAGUCUGACUUCAGACGAAACAGC [GACUUC]
Reply: 1.95

Query: Give me measured normalized RNA/DNA level with ligand (log10), please, for this variant: GCUGUCACCGGUGUAUUACCCUAGUGGUCGACCGGUCUGAUGAGUCUGGGCGCAGACGAAACAGC [GGGCGC]
Reply: 1.93

Query: Give me measured normalized RNA/DNA level with ligand (log10), please, for this variant: GCUGUCACCGGUGUAUUACCCUAGUGGUCGACCGGUCUGAUGAGUCUGCGGCUAGACGAAACAGC [GCGGCU]
Reply: 1.97

Query: Give me measured normalized RNA/DNA level with ligand (log10), please, for this variant: GCUGUCACCGGUGUAUUACCCUAGUGGUCGACCGGUCUGAUGAGUCUCAAACUAGACGAAACAGC [CAAACU]
Reply: 1.94
